TARGET: trypsin-like activity of purified bovine erythrocyte 20S proteasome (Bos taurus)
Construct: from tissue; host or cells: bovine erythrocytes (red blood cells)
MEASUREMENT NOTES: Enzyme kinetic assay, trypsin-like activity (Boc-LRR-AMC)
Type: biochemical
EXPERIMENTAL CONDITIONS: Table 3
Where a SMILES comes first, the peptide text is derived from it. The star is where a group is joined. X1 = CC(C)C[C@H](N*)C(=O)[C@@]1(C)CO1
MEASURED ATTRIBUTE: kobs/[I] Trypsin-like (M⁻¹ s⁻¹)

COMPOUND	TARGET	MEASURED ATTRIBUTE	ASSAY VALUE
CC(C)C[C@H](NC(=O)[C@H](Cc1ccccc1)NC(=O)[C@@H]1CCCN1C(=O)c1cnccn1)C(=O)C1(C)CO1 (stereo partly shown)	trypsin-like activity of purified bovine erythrocyte 20S proteasome (Bos taurus)	kobs/[I] Trypsin-like	3.7
CC(=O)N[C@@H](C)C(=O)N[C@H](C(=O)N[C@@H](CC(C)C)C(=O)[C@@]1(C)CO1)C(C)C	trypsin-like activity of purified bovine erythrocyte 20S proteasome (Bos taurus)	kobs/[I] Trypsin-like	1.8
CC[C@H](C)[C@H](NC(C)=O)C(=O)N[C@H](C(=O)N[C@@H](CC(C)C)C(=O)[C@@]1(C)CO1)C(C)C	trypsin-like activity of purified bovine erythrocyte 20S proteasome (Bos taurus)	kobs/[I] Trypsin-like	6.7
CC(=O)NCC(=O)NCC(=O)N1CCC[C@H]1C(=O)N[C@@H](Cc1ccccc1)C(=O)N[C@@H](CC(C)C)C(=O)[C@@]1(C)CO1 [Ac-GGPFL-Ex] (Ac-GGPF-X1)	trypsin-like activity of purified bovine erythrocyte 20S proteasome (Bos taurus)	kobs/[I] Trypsin-like	1.3

---

TARGET: trypsin-like activity of purified bovine erythrocyte 20S proteasome (Bos taurus, UniProt Q2TBP0)
Construct: from tissue; host or cells: bovine erythrocytes (red blood cells)
MEASUREMENT NOTES: Enzyme kinetic assay, trypsin-like activity (Boc-LRR-AMC)
Format: biochemical
EXPERIMENTAL CONDITIONS: pH 8; Table 4; inhibitor concentration range in parentheses; read-out: kassoc = kobs/[I] Trypsin-like activity
Form field: kinact/KI (one value per entry).
MEASURED ATTRIBUTE: kinact/KI (M⁻¹ s⁻¹)

MOLECULE	UNIT STRING	ASSAY VALUE
CC(C)[C@H](O)[C@@]12NC(=O)[C@H](C)[C@@H]1OC2=O [drawing 17, reference compound]	M⁻¹ s⁻¹	68
CC(=O)N[C@@H](CCc1ccccc1)C(=O)N[C@@H](CC(C)C)C(=O)N[C@@H](Cc1ccccc1)C(=O)N[C@@H](CC(C)C)C(=O)[C@@]1(C)CO1 [compound 16]	M⁻¹ s⁻¹	7.1
CC(C)C[C@H](NC(=O)[C@@H](N)CCc1ccccc1)C(=O)N[C@@H](Cc1ccccc1)C(=O)N[C@@H](CC(C)C)C(=O)[C@@]1(C)CO1 [compound 18]	M⁻¹ s⁻¹	580
CC(C)C[C@@H](/C=C/S(C)(=O)=O)NC(=O)[C@H](CC(C)C)NC(=O)[C@H](CC(C)C)NC(=O)Cc1cc(N)c(O)c(I)c1 [reference compound]	M⁻¹ s⁻¹	3.4

---

TARGET: PGPH activity of purified bovine erythrocyte 20S proteasome (Bos taurus, UniProt Q3MHN0)
Construct: from tissue; host or cells: bovine erythrocytes (red blood cells)
MEASUREMENT NOTES: Enzyme kinetic assay, PGPH activity (Z-LLE-AMC)
Format: biochemical
EXPERIMENTAL CONDITIONS: pH 8; Table 4; inhibitor concentration range in parentheses; read-out: kassoc = kobs/[I] PGPH activity
MEASURED ATTRIBUTE: log10 of kinact/KI (log10 of the value in M⁻¹ s⁻¹)

COMPOUND	log10 of kinact/KI
CC(C)[C@H](O)[C@@]12NC(=O)[C@H](C)[C@@H]1OC2=O [drawing 17, reference compound]	1.67
CC(C)C[C@@H](/C=C/S(C)(=O)=O)NC(=O)[C@H](CC(C)C)NC(=O)[C@H](CC(C)C)NC(=O)Cc1cc(N)c(O)c(I)c1 [reference compound]	0.60
CC(C)C[C@H](NC(=O)[C@@H](N)CCc1ccccc1)C(=O)N[C@@H](Cc1ccccc1)C(=O)N[C@@H](CC(C)C)C(=O)[C@@]1(C)CO1	1.04
CC(=O)N[C@@H](CCc1ccccc1)C(=O)N[C@@H](CC(C)C)C(=O)N[C@@H](Cc1ccccc1)C(=O)N[C@@H](CC(C)C)C(=O)[C@@]1(C)CO1	1.32
CC(C)C[C@H](NC(=O)[C@H](Cc1ccccc1)NC(=O)c1cnccn1)B(O)O [reference compound]	3.51
